# Test system: OVCAR-5 ovarian
# Assay explanation: NCI tumour cell line growth inhibition, 48 h
Reported property: TGI

COC1CC(N)C(O)C(C)O1 (stereo unspecified) ... > 100 µM
CC12CCC(CC1)C(C)(C)O2 ... 116 µM
CCn1c2ccccc2c2c(-c3ccccc3)cc3c(c21)C(=O)N(c1ccccc1)C3=O ... > 100 µM
CCN1C(=NCCO)NS(=O)(=O)c2ccccc21 ... > 100 µM
CCCCCCNCc1cc(C(C)(C)C)cc(CNCCCCCC)c1O ... 2.88 µM
COc1ccc(-c2c(-c3ccccc3)c(C)nc3nc(SC)nc(SC)c23)cc1OC ... > 100 µM
O=C(Nc1ccc(S(=O)(=O)/N=c2\ncccn2C(=O)C(C(F)(F)F)C(F)(F)F)cc1)C(C(F)(F)F)C(F)(F)F ... > 100 µM
COC1C(N(C)C)=C(c2ccccc2)C(=O)N2CCc3ccccc3C12 (stereo unspecified) ... > 100 µM
CN(C)c1ccc(/C=N/S(=O)(=O)c2ccc(-n3c(-c4ccccc4)nc4c(Br)cc(Br)cc4c3=O)cc2)cc1 ... > 100 µM
COc1c(N2CCN(CN3C(=O)C(=O)c4cc(Cl)ccc43)C(C)C2)c(F)cc2c(=O)c(C(=O)O)cn(C3CC3)c12 (stereo unspecified) ... > 100 µM
CC(=O)OCC1OC(n2c(Br)nc3c2c(=O)n(C)c(=O)n3C)C(OC(C)=O)C1OC(C)=O (stereo unspecified) ... > 100 µM
Cn1cc(C2=C(Nc3ccccc3)C(=O)NC2=O)c2ccccc21 ... > 25 µM
COc1nc2ccc(COc3ccc(C(=O)O)cc3)cc2nc1OC ... > 100 µM
CC(=O)NC1=NC(=O)/C(=C/c2ccc(/C=C3/C(=O)N=C(NC(C)=O)N3C)cc2)N1C ... > 100 µM
C[C@H](CCC1SC1(C)C)C1CCC2(C)C3=C(CC[C@]12C)[C@@]1(C)CC[C@H](O)C(C)(C)C1CC3 (stereo partly specified) ... > 100 µM
O=C(O)c1nc2ccc(C(F)(F)F)cc2nc1Nc1ccc(F)cc1 ... 64.3 µM
CC(=O)O[C@H]1CC[C@@]2(C)C(=C/C(=N/OCCN3CCCC3)[C@H]3[C@@H]4CC[C@H](OC(C)=O)[C@@]4(C)CC[C@@H]32)C1 ... > 100 µM
CCN1CCC(CNC(=O)c2ccc(N)cc2)N1CC (stereo unspecified) ... > 100 µM
Cc1ccc(C2(c3ccc(F)cc3)OC(=O)c3ccccc32)c(O)c1 (stereo unspecified) ... 28.5 µM
Cc1nc2sc(C(=O)c3ccc(Cl)cc3)c(N)c2c(-c2ccccc2Cl)c1C(=O)Nc1ccccc1 ... 38.6 µM
NC(=O)CC(N=Cc1nc(-c2ccccc2)oc1O)C(=O)O (stereo unspecified) ... > 100 µM
